The reported measurements were obtained from paper PMC4052532.

Assay: Biodistribution studies
Format: in vivo
Details: female, BALB/c nude, mouse, iv, total radioactivity; HepG2 tumor, 1 h postinjection, ~7.4 MBq i.v., n = 5, mean ± SD; read-out: Tumor uptake
Where a SMILES comes first, the peptide text is derived from it. Bridges are numbered along the chain shown (N, C = ends).
test_readout: tissue uptake at 1 h

- N=C(N)NCCC[C@@H]1NC(=O)CNC(=O)[C@H](CC(N)=O)NC(=O)[C@@H](NC(=O)CNC(=O)CNC(=O)[C@@H](N)Cc2ccc(O)cc2)CSSC[C@@H](C(=O)O)NC1=O [^99mTc-NGR, metal not drawn] (H-YGGCNGRC-OH; disulfide 4-8): 2.52 %ID/g

====

Assay: Biodistribution studies
Format: in vivo
Conditions: female, BALB/c nude, mouse, intestine, iv, total radioactivity; 4 h postinjection, ~7.4 MBq i.v., n = 5, mean ± SD; read-out: Intestine uptake
Where a SMILES comes first, the peptide text is derived from it. Bridges are numbered along the chain shown (N, C = ends).
test_readout: tissue uptake at 4 h (%ID/g)

* N=C(N)NCCC[C@@H]1NC(=O)CNC(=O)[C@H](CC(N)=O)NC(=O)[C@@H](NC(=O)CNC(=O)CNC(=O)[C@@H](N)Cc2ccc(O)cc2)CSSC[C@@H](C(=O)O)NC1=O [^99mTc-NGR, metal not drawn] (H-YGGCNGRC-OH; disulfide 4-8) | 2.18

====

Experiment: Biodistribution studies
Type: in vivo
Conditions: female, BALB/c nude, mouse, iv, total radioactivity; HepG2 tumor, 8 h postinjection, ~7.4 MBq i.v., n = 5, mean ± SD; read-out: Tumor uptake
Where a SMILES comes first, the peptide text is derived from it. Bridges are numbered along the chain shown (N, C = ends).
test_readout: tissue uptake at 8 h (%ID/g)

- N=C(N)NCCC[C@@H]1NC(=O)CNC(=O)[C@H](CC(N)=O)NC(=O)[C@@H](NC(=O)CNC(=O)CNC(=O)[C@@H](N)Cc2ccc(O)cc2)CSSC[C@@H](C(=O)O)NC1=O [^99mTc-NGR, metal not drawn] (H-YGGCNGRC-OH; disulfide 4-8): 3.26

====

Assay: Biodistribution studies
Type: in vivo
Conditions: female, BALB/c nude, mouse, heart, iv, total radioactivity; 8 h postinjection, ~7.4 MBq i.v., n = 5, mean ± SD; read-out: Heart uptake
Where a SMILES comes first, the peptide text is derived from it. Bridges are numbered along the chain shown (N, C = ends).
test_readout: tissue uptake at 8 h (%ID/g)

• N=C(N)NCCC[C@@H]1NC(=O)CNC(=O)[C@H](CC(N)=O)NC(=O)[C@@H](NC(=O)CNC(=O)CNC(=O)[C@@H](N)Cc2ccc(O)cc2)CSSC[C@@H](C(=O)O)NC1=O [^99mTc-NGR, metal not drawn] (H-YGGCNGRC-OH; disulfide 4-8) = 1.15

====

Experiment: Biodistribution studies
Format: in vivo
Conditions: female, BALB/c nude, mouse, liver, iv, total radioactivity; 4 h postinjection, ~7.4 MBq i.v., n = 5, mean ± SD; read-out: Liver uptake
Where a SMILES comes first, the peptide text is derived from it. Bridges are numbered along the chain shown (N, C = ends).
test_readout: tissue uptake at 4 h (%ID/g)

* N=C(N)NCCC[C@@H]1NC(=O)CNC(=O)[C@H](CC(N)=O)NC(=O)[C@@H](NC(=O)CNC(=O)CNC(=O)[C@@H](N)Cc2ccc(O)cc2)CSSC[C@@H](C(=O)O)NC1=O [^99mTc-NGR, metal not drawn] (H-YGGCNGRC-OH; disulfide 4-8) | 3.85
